The reported numbers originate from the supplement of paper PMC6089552.

- System: A673/TR/shEF
- Test method notes: cell viability (LOESS-normalised, relative to median of negative controls) (log2 ratio); higher = more viable cells (less compound effect), active = hit call of the paper (over 3 MAD below the median)
- Reported conditions: 2.5 µM; library screen: screen2; EWS-FLI1 expression: low (doxycycline-induced shRNA knockdown); treatment time: 72 h
The campaign covered roughly 3,200 compounds. About 300 (9.4%) showed activity. What follows is part of a selection rich in actives, with near analogues and random picks from the rest.
Field 'call' accepts active, inactive

Worked cases, answers included:
{"Molecule": "NC(=NCCCC(N)C(=O)O)N[N+](=O)[O-] (stereo not given)", "Assayed target": "A673/TR/shEF", "Category label": "inactive"}
{"Molecule": "N#CC(C#N)=Cc1ccc([N+](=O)[O-])c(O)c1", "Assayed target": "A673/TR/shEF", "Category label": "active"}
{"Molecule": "CCCC(C)(COC(N)=O)COC(=O)NC(C)C (stereo not given)", "Assayed target": "A673/TR/shEF", "Category label": "inactive"}
{"Molecule": "CCCN(CCC)[C@@H]1CCc2c(F)ccc(O)c2C1", "Assayed target": "A673/TR/shEF", "Category label": "inactive"}
{"Molecule": "N[C@@]1(C(=O)O)CC[C@@H](C(=O)O)C1", "Assayed target": "A673/TR/shEF", "Category label": "inactive"}
{"Molecule": "C=C(C)[C@@H]1C2OC(=O)C1[C@]1(O)CC3O[C@]34C(=O)O[C@H]2[C@]14C.CC(C)(O)[C@@H]1C2OC(=O)C1[C@]1(O)C[C@H]3O[C@]34C(=O)O[C@H]2[C@]14C (stereo not given in full)", "Assayed target": "A673/TR/shEF", "Category label": "inactive"}
{"Molecule": "CN1[C@H]2CC(OC(=O)C(CO)c3ccccc3)C[C@H]1[C@H]1O[C@H]12 (stereo not given in full)", "Assayed target": "A673/TR/shEF", "Category label": "inactive"}
{"Molecule": "Ic1ccccc1CN[C@H]1C2CCN(CC2)[C@H]1C(c1ccccc1)c1ccccc1", "Assayed target": "A673/TR/shEF", "Category label": "inactive"}

Shift focus to the following entry.
q: GET /call?item= CCN(CC)C(=O)N[C@@H]1C[C@@H]2c3cccc4[nH]cc(c34)C[C@H]2N(C)C1 returns the recorded outcome of this test.
a: inactive

====

- System: A673/TR/shEF
- Test method notes: cell viability (LOESS-normalised, relative to median of negative controls) (log2 ratio); higher = more viable cells (less compound effect), active = hit call of the paper (over 3 MAD below the median)
- Reported conditions: 2.5 µM; library screen: screen2; EWS-FLI1 expression: high (no doxycycline); treatment time: 72 h
Out of some 3,200 compounds screened, about 300 (9.4%) showed activity. What follows is part of a selection rich in actives, with near analogues and random picks from the rest.
Hi! Could you tag entries with cell viability (log2) below 0.07 as MET, and those at or above as NOT MET? Much appreciated.

Worked cases, answers included:
{"Compound": "O=C(CCCN1CCC2(CC1)C(=O)N(CCc1ccc(N=C=S)cc1)CN2c1ccccc1)c1ccc(F)cc1", "Assayed target": "A673/TR/shEF", "Category label": "NOT MET"}
{"Compound": "CC(=O)[C@H]1CC[C@H]2[C@@H]3CC[C@H]4C[C@H](O)CC[C@]4(C)[C@H]3CC[C@]12C", "Assayed target": "A673/TR/shEF", "Category label": "NOT MET"}
{"Compound": "C#CCN[C@H](C)Cc1ccccc1", "Assayed target": "A673/TR/shEF", "Category label": "NOT MET"}
{"Compound": "O=C(O)C1C2CCC(O2)C1C(=O)O (centres undefined)", "Assayed target": "A673/TR/shEF", "Category label": "NOT MET"}
{"Compound": "Ic1ccccc1CN[C@H]1C2CCN(CC2)[C@H]1C(c1ccccc1)c1ccccc1", "Assayed target": "A673/TR/shEF", "Category label": "NOT MET"}
{"Compound": "CC(C)(C)c1cc(C=C(C#N)C#N)cc(C(C)(C)C)c1O", "Assayed target": "A673/TR/shEF", "Category label": "MET"}
{"Compound": "CC1=C[C@@H]2c3cccc4[nH]cc(c34)C[C@H]2N(C)C1", "Assayed target": "A673/TR/shEF", "Category label": "NOT MET"}
{"Compound": "CCC1(O)CC(OC2CC(N(C)C)C(O)C(C)O2)c2c(cc3c(c2O)C(=O)c2c(O)cccc2C3=O)C1C(=O)OC (centres undefined)", "Assayed target": "A673/TR/shEF", "Category label": "MET"}
{"Compound": "CCCC(C)(COC(N)=O)COC(=O)NC(C)C (centres undefined)", "Assayed target": "A673/TR/shEF", "Category label": "MET"}
{"Compound": "NCC(O)c1cc(O)c(O)cc1F (centres undefined)", "Assayed target": "A673/TR/shEF", "Category label": "NOT MET"}

q: Quick check: cell viability (log2) of Nc1ncnc2c1ncn2C1OC2COP(O)(=S)OC2C1O (centres undefined) under 0.07?
a: NOT MET

q: Quick check: cell viability (log2) of CC(C)N(CCC(C(N)=O)(c1ccccc1)c1ccccn1)C(C)C (centres undefined) under 0.07?
a: NOT MET

q: Quick check: cell viability (log2) of CNc1ccc2oc(C[C@@H]3OC4(CC[C@@H]3C)O[C@H](C(C)C(=O)c3ccc[nH]3)[C@H](C)C[C@H]4C)nc2c1C(=O)O (some centres undefined) under 0.07?
a: MET

q: Quick check: cell viability (log2) of Oc1ccc2c3c1O[C@H]1c4[nH]c5ccccc5c4C[C@@]4(O)C(C2)N(CC2CC2)CCC314 (some centres undefined) under 0.07?
a: NOT MET
